Measured values drawn from PubChem BioAssay AID1963830 for this set.

# System: 922993-354-T-J3-PDC complex spheroid viability
# test: Anticancer human tumor 922993-354-T-J3-PDC patient-derived endometrial carcinoma cell line growth inhibition [POLQ]; active means viability on the fitted dose curve at most 10% of control; inactive means the rest
# particulars: second compound 0.316 µM; first compound 10 µM
Select the matching outcome among Yes (active), No (inactive)

Worked cases, answers included:
Nc1ccn(C2OC(CO)C(O)C2(F)F)c(=O)n1 (stereo not given) + Cc1cccc(N(C)C(=O)C2C(O)CCN2c2nc(C)cc(C(F)(F)F)c2C#N)c1; No
CC1COCCN1c1cc(C2(S(C)(=N)=O)CC2)nc(-c2ccnc3[nH]ccc23)n1 (stereo not given) + Cc1cccc(N(C)C(=O)C2C(O)CCN2c2nc(C)cc(C(F)(F)F)c2C#N)c1; No
CCCS(=O)(=O)Nc1ccc(F)c(C(=O)c2c[nH]c3ncc(-c4ccc(Cl)cc4)cc23)c1F + COC1C(OC(N)=O)C(O)C(Oc2ccc3c(O)c(NC(=O)c4ccc(O)c(CC=C(C)C)c4)c(=O)oc3c2C)OC1(C)C; No
CC1COCCN1c1cc(-c2ccnn2C)c2ccnc(-c3ccn[nH]3)c2n1 (stereo not given) + Cc1cccc(N(C)C(=O)C2C(O)CCN2c2nc(C)cc(C(F)(F)F)c2C#N)c1; Yes

Below: the item to evaluate.
(Q) Per the records of this test, what outcome belongs to CNCc1ccc(-c2[nH]c3cc(F)cc4c3c2CCNC4=O)cc1 + Nc1ccc(C#CCN(C(=O)Cc2ncc(C(F)(F)F)cc2C(F)(F)F)c2ccc(F)cc2)nn1 ?
(A) No

----------
# Test system: 922993-354-T-J3-PDC complex spheroid viability
# test: Anticancer human tumor 922993-354-T-J3-PDC cell line growth inhibition [POLQ];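 further: spheroids exposed to the agents for one week; 100% = DMSO vehicle control wells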
# particulars: second compound 0.316 µM; first compound 0.0316 µM; stronger effect = lower value
Measured viability, T/C, listed per entry.
Numeric only. Scale: %

In the examples that follow, each entry is paired with its recorded viability, T/C.
O=c1[nH]cc(F)c(=O)[nH]1 + Cc1cccc(N(C)C(=O)C2C(O)CCN2c2nc(C)cc(C(F)(F)F)c2C#N)c1; 108
CC(C)n1c(=O)n(C)c2cnc3cc(F)c(-c4ccc(OCCCN5CCCCC5)nc4)cc3c21 + COC1C(OC(N)=O)C(O)C(Oc2ccc3c(O)c(NC(=O)c4ccc(O)c(CC=C(C)C)c4)c(=O)oc3c2C)OC1(C)C; 99.2
Nc1ccn(C2OC(CO)C(O)C2(F)F)c(=O)n1 (stereo not given) + Nc1ccc(C#CCN(C(=O)Cc2ncc(C(F)(F)F)cc2C(F)(F)F)c2ccc(F)cc2)nn1; 24.9
Cn1ncnc1[C@H]1c2n[nH]c(=O)c3cc(F)cc(c23)N[C@@H]1c1ccc(F)cc1 + Nc1ccc(C#CCN(C(=O)Cc2ncc(C(F)(F)F)cc2C(F)(F)F)c2ccc(F)cc2)nn1; 96

Consider the record given below.
(Q) Supply reported viability, T/C belonging to this molecule: CCc1c2c(nc3ccc(O)cc13)-c1cc3c(c(=O)n1C2)COC(=O)[C@]3(O)CC + COC1C(OC(N)=O)C(O)C(Oc2ccc3c(O)c(NC(=O)c4ccc(O)c(CC=C(C)C)c4)c(=O)oc3c2C)OC1(C)C
(A) 12

----------
# Test system: 922993-354-T-J3-PDC complex spheroid viability
# test: Anticancer human tumor 922993-354-T-J3-PDC cell line growth inhibition [POLQ];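 further: spheroids exposed to the agents for one week; 100% = DMSO vehicle control wells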
# particulars: second compound 0.1 µM; first compound 10 µM; stronger effect = lower value
Binarize viability, T/C at 90%; below is met, at or above is not met.

Worked cases, answers included:
O=C(c1cc(Cc2n[nH]c(=O)c3ccccc23)ccc1F)N1CCN(C(=O)C2CC2)CC1 + Nc1ccc(C#CCN(C(=O)Cc2ncc(C(F)(F)F)cc2C(F)(F)F)c2ccc(F)cc2)nn1; not met
CNCc1ccc(-c2[nH]c3cc(F)cc4c3c2CCNC4=O)cc1 + COC1C(OC(N)=O)C(O)C(Oc2ccc3c(O)c(NC(=O)c4ccc(O)c(CC=C(C)C)c4)c(=O)oc3c2C)OC1(C)C; met
CC(C)n1c(=O)n(C)c2cnc3cc(F)c(-c4ccc(OCCCN5CCCCC5)nc4)cc3c21 + Nc1ccc(C#CCN(C(=O)Cc2ncc(C(F)(F)F)cc2C(F)(F)F)c2ccc(F)cc2)nn1; met

Below: the item to evaluate.
(Q) Please check: viability, T/C for COc1ccc([C@@H](O)c2cc(-c3ncnc4cc(N5CCOCC5)ccc34)c(F)cc2Cl)nn1 + COC1C(OC(N)=O)C(O)C(Oc2ccc3c(O)c(NC(=O)c4ccc(O)c(CC=C(C)C)c4)c(=O)oc3c2C)OC1(C)C , strictly under 90% or not?
(A) met

----------
# System: 922993-354-T-J3-PDC complex spheroid viability
# test: Anticancer human tumor 922993-354-T-J3-PDC cell line growth inhibition [POLQ];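 further: spheroids exposed to the agents for one week; 100% = DMSO vehicle control wells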
# particulars: second compound 0.1 µM; first compound 0.1 µM; stronger effect = lower value
# Procedure: Multicellular complex tumor spheroid response to Polymerase (POL) inhibitors (novobiocin, ART-558, RP6685) in combination with a variety of drugs and investigational agents in selected tumor cell lines The POL inhibitors (novobiocin, ART-558, and RP6685) were evaluated both individually and in combination with standard of care and investigational anticancer small molecules within a complex spheroid model of solid tumors. . […]
readout.name: viability, T/C (%)
Numeric only. Scale: %

In the examples that follow, each entry is paired with its recorded viability, T/C.
O=C(Nc1ccc(O)c(NS(=O)(=O)c2ccc(F)cc2)c1)c1ccc(-c2ccccc2)cc1 + Cc1cccc(N(C)C(=O)C2C(O)CCN2c2nc(C)cc(C(F)(F)F)c2C#N)c1; 101
Nc1ccn(C2OC(CO)C(O)C2(F)F)c(=O)n1 (stereo not given) + COC1C(OC(N)=O)C(O)C(Oc2ccc3c(O)c(NC(=O)c4ccc(O)c(CC=C(C)C)c4)c(=O)oc3c2C)OC1(C)C; 12.8
O=C(Nc1ccc(O)c(NS(=O)(=O)c2ccc(F)cc2)c1)c1ccc(-c2ccccc2)cc1 + Nc1ccc(C#CCN(C(=O)Cc2ncc(C(F)(F)F)cc2C(F)(F)F)c2ccc(F)cc2)nn1; 97.6
C=CCn1c(=O)c2cnc(Nc3ccc(N4CCN(C)CC4)cc3)nc2n1-c1cccc(C(C)(C)O)n1 + COC1C(OC(N)=O)C(O)C(Oc2ccc3c(O)c(NC(=O)c4ccc(O)c(CC=C(C)C)c4)c(=O)oc3c2C)OC1(C)C; 102
CC1COCCN1c1cc(-c2ccnn2C)c2ccnc(-c3ccn[nH]3)c2n1 (stereo not given) + Nc1ccc(C#CCN(C(=O)Cc2ncc(C(F)(F)F)cc2C(F)(F)F)c2ccc(F)cc2)nn1; 95.5
CC1COCCN1c1cc(C2(O)CC3CCC(C2)O3)c2cnn(-c3ccn[nH]3)c2n1 (stereo not given) + Nc1ccc(C#CCN(C(=O)Cc2ncc(C(F)(F)F)cc2C(F)(F)F)c2ccc(F)cc2)nn1; 107
O=C(c1cc(Cc2n[nH]c(=O)c3ccccc23)ccc1F)N1CCN(C(=O)C2CC2)CC1 + Nc1ccc(C#CCN(C(=O)Cc2ncc(C(F)(F)F)cc2C(F)(F)F)c2ccc(F)cc2)nn1; 103
CNCc1ccc(-c2[nH]c3cc(F)cc4c3c2CCNC4=O)cc1 + Nc1ccc(C#CCN(C(=O)Cc2ncc(C(F)(F)F)cc2C(F)(F)F)c2ccc(F)cc2)nn1; 99
COc1ccc([C@@H](O)c2cc(-c3ncnc4cc(N5CCOCC5)ccc34)c(F)cc2Cl)nn1 + COC1C(OC(N)=O)C(O)C(Oc2ccc3c(O)c(NC(=O)c4ccc(O)c(CC=C(C)C)c4)c(=O)oc3c2C)OC1(C)C; 92.8
CCc1cc2c(N3CCc4c(cc(Cn5ccnc5)cc4-c4cn(C)nc4C(F)(F)F)C3=O)ccnc2c(OC)n1 + Nc1ccc(C#CCN(C(=O)Cc2ncc(C(F)(F)F)cc2C(F)(F)F)c2ccc(F)cc2)nn1; 102

(Q) Enter viability, T/C (test system 922993-354-T-J3-PDC complex spheroid viability) for COc1cc(C2c3cc4c(cc3C(OC3OC5COC(C)OC5C(O)C3O)C3COC(=O)C23)OCO4)cc(OC)c1O (stereo not given) + COC1C(OC(N)=O)C(O)C(Oc2ccc3c(O)c(NC(=O)c4ccc(O)c(CC=C(C)C)c4)c(=O)oc3c2C)OC1(C)C
(A) 89.4

(Q) Enter viability, T/C (test system 922993-354-T-J3-PDC complex spheroid viability) for CC[C@@]1(O)C(=O)OCc2c1cc1n(c2=O)Cc2cc3c(CN(C)C)c(O)ccc3nc2-1 + Nc1ccc(C#CCN(C(=O)Cc2ncc(C(F)(F)F)cc2C(F)(F)F)c2ccc(F)cc2)nn1
(A) 87.2

(Q) Enter viability, T/C (test system 922993-354-T-J3-PDC complex spheroid viability) for C=CCn1c(=O)c2cnc(Nc3ccc(N4CCN(C)CC4)cc3)nc2n1-c1cccc(C(C)(C)O)n1 + Nc1ccc(C#CCN(C(=O)Cc2ncc(C(F)(F)F)cc2C(F)(F)F)c2ccc(F)cc2)nn1
(A) 99.6
